B1: Glucocorticoid receptor, P04150 (parent)
chain: MDSKESLTPGREENPSSVLAQERGDVMDFYKTLRGGATVKVSASSPSLAVASQSDSKQRRLLVDFPKGSVSNAQQPDLSKAVSLSMGLYMGETETKVMGNDLGFPQQGQISLSSGETDLKLLEESIANLNRSTSVPENPKSSASTAVSAAPTEKEFPKTHSDVSSEQQHLKGQTGTNGGNVKLYTTDQSTFDILQDLEFSSGSPGKETNESPWRSDLLIDENCLLSPLAGEDDSFLLEGNSNEDCKPLILPDTKPKIKDNGDLVLSSPSNVTLPQVKTEKEDFIELCTPGVIKQEKLGTVYCQASFPGANIIGNKMSAISVHGVSTSGGQMYHYDMNTASLSQQQDQKPIFNVIPPIPVGSENWNRCQGSGDDNLTSLGTLNFPGRTVFSNGYSSPSMRPDVSSPPSSSSTATTGPPPKLCLVCSDEASGCHYGVLTCGSCKVFFKRAVEGQHNYLCAGRNDCIIDKIRRKNCPACRYRKCLQAGMNLEARKTKKKIKGIQQATTGVSQETSENPGNKTIVPATLPQLTPTLVSLLEVIEPEVLYAGYDSSVPDSTWRIMTTLNMLGGRQVIAAVKWAKAIPGFRNLHLDDQMTLLQYSWMFLMAFALGWRSYRQSSANLLCFAPDLIINEQRMTLPCMYDQCKHMLYVSSELHRLQVSYEEYLCMKTLLLLSSVPKDGLKSQELFDEIRMTYIKELGKAIVKREGNSSQNWQRFYQLTKLLDSMHEVVENLLNYCFQTFLDKTMSIEFPEMLAEIITNQIPKYSNGNIKKLLFHQK

variants of: B1; settings: Homo sapiens; pH 7.8; Thermal; CD; Tris-HCl 25mM; structure 1M2Z; whole UniProt chain shown
PARAMETER: Tm (°C)
Numeric only. Scale: °C

Below, each entry is followed by its recorded Tm result.
MUTATION_KEY | U | MEASURED_NUMBER
E705G | °C | 46.6
F602S A605V M752T V702A E705G | °C | 58.6
F602S A605V M752T M560K | °C | 49.9
F602S A605V M752T | °C | 56

[Q] Output measured Tm for this item: "M752T"
[A] 48.6

[Q] Output measured Tm for this item: A605V M752T
[A] 51.5

[Q] Output measured Tm for this item: "F602S"
[A] 50.3

[Q] Output measured Tm for this item: F602S A605V
[A] 54

[Q] Output measured Tm for this item: "A605V"
[A] 49.3

[Q] Output measured Tm for this item: "V702A"
[A] 47.2

[Q] Output measured Tm for this item: A605V M752T V702A E705G
[A] 54.4

[Q] Output measured Tm for this item: A605V M752T V702A
[A] 53.6

[Q] Output measured Tm for this item: A605V M752T E705G
[A] 52.9

Data provenance: FireProtDB (doi:10.1016/j.jmb.2010.08.048)
